Target: High affinity nerve growth factor receptor (Homo sapiens) (UniProt P04629);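 also: each value is a mean of replicate percent inhibition readings against TRKA kinase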
Sequence (P04629 33-796 limits assumed): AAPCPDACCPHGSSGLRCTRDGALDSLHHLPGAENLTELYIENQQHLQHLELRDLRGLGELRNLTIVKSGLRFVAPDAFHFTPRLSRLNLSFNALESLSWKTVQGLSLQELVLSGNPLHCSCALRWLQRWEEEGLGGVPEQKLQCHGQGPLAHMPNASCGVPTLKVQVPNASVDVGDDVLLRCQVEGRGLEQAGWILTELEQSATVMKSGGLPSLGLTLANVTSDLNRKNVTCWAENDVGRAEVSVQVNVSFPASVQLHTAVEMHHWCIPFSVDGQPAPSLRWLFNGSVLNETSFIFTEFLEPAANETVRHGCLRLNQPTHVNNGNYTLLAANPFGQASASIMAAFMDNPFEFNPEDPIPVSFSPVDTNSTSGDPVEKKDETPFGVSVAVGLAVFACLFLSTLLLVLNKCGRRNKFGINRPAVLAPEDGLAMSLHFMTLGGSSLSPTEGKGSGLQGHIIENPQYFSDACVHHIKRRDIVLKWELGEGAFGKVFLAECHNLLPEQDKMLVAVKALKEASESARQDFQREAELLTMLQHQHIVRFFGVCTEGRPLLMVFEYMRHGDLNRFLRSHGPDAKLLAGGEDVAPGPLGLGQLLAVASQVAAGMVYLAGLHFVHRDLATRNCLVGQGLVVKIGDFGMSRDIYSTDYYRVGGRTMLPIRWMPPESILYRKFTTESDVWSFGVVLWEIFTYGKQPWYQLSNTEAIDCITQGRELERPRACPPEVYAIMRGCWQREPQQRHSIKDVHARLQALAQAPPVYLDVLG
Conditions: at 0.1 µM
experimental-endpoint: inhibition (%)
Give bare numbers, in %.

Here are 8 molecules together with their reported answers.
CCCN(CCS(C)(=O)=O)Cc1ccc(-c2ccc3ncnc(Nc4ccc(OCc5cccc(F)c5)c(Cl)c4)c3c2)o1: 2.55
O=C(Nc1n[nH]c2cc(-c3ccc(F)cc3)ccc12)C1CC1: 4.77
COc1cccc(-c2c[nH]c3c(N/N=C/c4ccncc4)ncnc23)c1: 6.49
COc1ccc(-c2cc3c(N)ncnc3o2)cc1: -0.83
Fc1cccc(COc2ccc(Nc3ncnc4sc(-c5ccco5)cc34)cc2Cl)c1: 1.02
CCOc1ccc2c(-c3ccnc(Nc4cccc(C(F)(F)F)c4)n3)cnn2n1: 0.72
CC(C)COC(=O)c1ccc2c(c1)/C(=C/Nc1ccc(S(N)(=O)=O)cc1)C(=O)N2: 2.03
CCn1c(-c2nonc2N)nc2c(C#CC(C)(C)O)nc(OC[C@H](N)c3ccccc3)cc21: 0.42

Give inhibition for all molecules that follow.
1. CS(=O)(=O)CCNCc1ccc(-c2ccc3ncnc(Nc4ccc(OCc5ccccc5)c(C(F)(F)F)c4)c3c2)o1
2. FC(F)(F)c1cccc(-c2nn3ncccc3c2-c2ccnc(Nc3ccc4c(c3)OCCO4)n2)c1
3. c1ccc(-c2nc3n(c2-c2ccc4c(c2)OCO4)CCC3)nc1
4. N#Cc1c(NC(=O)c2ccc(F)cc2)sc2c1CCCC2
5. Fc1ccc(-c2nn3ncccc3c2-c2ccnc(Nc3ccc4c(c3)OCCO4)n2)cc1

1. 2
2. 1.71
3. 1.9
4. 0.08
5. 2.82

For each of the items listed, what is its inhibition?
1. CCn1cc(-c2ccnc3[nH]ccc23)c(-c2cccc(NC(=O)Nc3ccc(OCc4ccccc4)cc3)c2)n1
2. COC(=O)c1sc(-n2cnc3cc(OC)c(OC)cc32)cc1OCc1ccccc1C(F)(F)F
3. CNC(=O)c1cncc(/C=C/c2ccccc2Cl)c1
4. Fc1ccc(-c2cc(-c3c[nH]nc3-c3ccccn3)ccn2)cc1
5. NS(=O)(=O)c1ccc(N/N=C2\C(=O)Nc3ccc4ncccc4c32)cc1
6. CC1=C(C(=O)Nc2cc(Cl)c3[nH]ncc3c2)C(c2ccc(C(F)(F)F)cc2)CC(=O)N1 (centres undefined)
7. COc1cccc(-n2ncc3c(N/N=C/c4ccc(F)cc4)ncnc32)c1

[-1.48, 3.76, -5.21, 2.16, 6.88, 3.77, 4.72]

Kindly give each listed record's inhibition.
1. CCn1c(-c2nonc2N)nc2c(C#CC(C)(C)O)ncc(OC3CCNCC3)c21
2. NS(=O)(=O)c1ccc(Nc2ncc(-c3ccccc3)o2)cc1
3. Fc1ccc(-c2nn3ccccc3c2-c2ccncc2)cc1

[2.16, 5.28, 2.3]

###

Biological target: Glycogen synthase kinase-3 alpha (Homo sapiens);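 also: values are mean inhibition of GSK3A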
Conditions: at 0.1 µM
experimental-endpoint: inhibition
Include the unit right after the number.

c1ccc(-c2nc3n(c2-c2ccc4c(c2)OCO4)CCC3)nc1: 1.93%

Hi, could you look up inhibition for each item in my list?
1. CC1=C(C(=O)Nc2cc(Cl)c3[nH]ncc3c2)C(c2ccc(C(F)(F)F)cc2)CC(=O)N1 (centres undefined)
2. CCn1c(-c2nonc2N)nc2c(C#CC(C)(C)O)nc(OC[C@H](N)c3ccccc3)cc21
3. N#Cc1c(NC(=O)CN2CCOCC2)sc2c1CCCC2

["0.24%", "36.8%", "10.6%"]
